Entry source: patent EP4763837A1

experiment: Photochromic property of photochromic laminate made by coating method; format: physicochemical; conditions: laminate by coating method; absorbance difference after 240 seconds irradiation at the maximum absorption wavelength of the same line

{"molecule": "CCCCC1(CC)c2ccccc2-c2c1c1c(c3cc(OC)c(N(C)c4ccccc4)cc23)OC(c2ccc(OC)cc2)(c2ccc(OC)cc2)C=C1 (stereo not shown)", "Color developing density at 23°C": "1.09 -"}
{"molecule": "CCCCCC1(CCCC)c2ccccc2-c2c1c1c(c3cc(OC)c(N4CCCc5ccccc54)cc23)OC(c2ccc(OC)cc2)(c2ccc(OCCC)cc2)C=C1 (stereo not shown)", "Color developing density at 23°C": "1.29 -"}
{"molecule": "CCCC1(CC)c2ccccc2-c2c1c1c(c3cc(OC)c(N(C)c4ccccc4)cc23)OC(c2ccc(OC)cc2)(c2ccc(N(c3ccccc3)c3ccccc3)cc2)C=C1 (stereo not shown)", "Color developing density at 23°C": "1.25 -"}
{"molecule": "CCC1(C)c2ccccc2-c2c1c1c(c3cc(OC)c(N(C)c4ccccc4)cc23)OC(c2ccc(OC)cc2)(c2ccc(OC)cc2)C=C1 (stereo not shown)", "Color developing density at 23°C": "1.16 -"}
